System: S. enterica typhimurium tolC KO
Experiment: growth AUC normalised to DMSO control (median) (fraction of control); higher = less growth inhibition, active = hit call of the paper
Details: 20 µM
Structures can show the parent of a compound that is named as a salt.
// one of active, inactive, no free text

{"columns": ["Molecule", "Label Value"],
 "data": [
  ["COC(=O)[C@@H]1[C@H]2C[C@H]3c4[nH]c5ccccc5c4CCN3C[C@@H]2CC[C@@H]1O [Yohimbine hydrochloride]", "inactive"],
  ["CC(=O)O[C@]1(C(C)=O)CC[C@H]2[C@@H]3C=C(C)C4=CC(=O)CC[C@@H]4[C@H]3CC[C@@]21C [Nomegestrol acetate]", "inactive"],
  ["CNCCC=C1c2ccccc2CCc2ccccc21 [Nortriptyline hydrochloride]", "inactive"],
  ["CC(C)CC(=O)N[C@H](C(=O)N[C@H](C(=O)N[C@@H](CC(C)C)[C@@H](O)CC(=O)N[C@@H](C)C(=O)N[C@@H](CC(C)C)[C@@H](O)CC(=O)O)C(C)C)C(C)C", "inactive"],
  ["CC(C)n1c(/C=C/C(O)CC(O)CC(=O)O)c(-c2ccc(F)cc2)c2ccccc21 (stereo not drawn) [Fluvastatin sodium salt]", "inactive"]
]}

Test call, this molecule: CCCCCCCCCCCCCCCC[N+](C)(C)CCN(Cc1ccc(OC)cc1)c1ncccn1 [Thonzonium bromide]
inactive

###

Test system: Salmonella enterica typhimurium
Test: growth AUC normalised to DMSO control (fraction of control); higher = less growth inhibition, active = hit call of the paper
Details: 20 µM
Structures can show the parent of a compound that is named as a salt.
Property Name: growth AUC normalised to DMSO control
Write the number on its own, no unit after it.

Illustrative cases are given below, each with its answer.
{"columns": ["Compound", "growth AUC normalised to DMSO control"],
 "data": [
  ["Nc1nc(F)nc2c1ncn2[C@@H]1O[C@H](CO)[C@@H](O)[C@@H]1O", 0.963],
  ["O=C(NCCN1CCOCC1)c1ccc(Cl)cc1 [Moclobemide]", 0.981],
  ["CCCSc1ccc2[nH]c(NC(=O)OC)nc2c1", 1],
  ["COc1ccc([C@@H]2Sc3ccccc3N(CCN(C)C)C(=O)[C@@H]2OC(C)=O)cc1 [Diltiazem hydrochloride]", 0.998],
  ["CCc1nc(N)nc(N)c1-c1ccc(Cl)cc1", 0.915]
]}

What value of growth AUC normalised to DMSO control has been reported for the following compound? O=C(c1ccc(OCCN2CCCCC2)cc1)c1c(-c2ccc(O)cc2)sc2cc(O)ccc12 [Raloxifene hydrochloride]
1.01

What value of growth AUC normalised to DMSO control has been reported for the following compound? CCCCCN(CCCCC)C(=O)C(CCC(=O)O)NC(=O)c1ccc(Cl)c(Cl)c1 (centres undefined) [Lorglumide sodium salt]
1

What value of growth AUC normalised to DMSO control has been reported for the following compound? CC(C)(C)NCC(O)COc1cccc2c1CC(O)C(O)C2 (centres undefined)
0.99

What value of growth AUC normalised to DMSO control has been reported for the following compound? O=S(=O)(O)c1cc(O)ccc1O [Ethamsylate diethylammonium salt]
1

###

System: S. enterica typhimurium WT
Assay: growth AUC normalised to DMSO control (median) (fraction of control); higher = less growth inhibition, active = hit call of the paper
Details: 20 µM
Where a name gives a salt, the structure may show the parent alone.
Entries and their growth AUC normalised to DMSO control
Write the number on its own, no unit after it.

{"columns": ["Compound", "growth AUC normalised to DMSO control"],
 "data": [
  ["CS(=O)(=O)Nc1ccc([N+](=O)[O-])cc1Oc1ccccc1 [Nimesulide]", 0.988],
  ["CCOC(=O)NNc1nncc2ccccc12 [Todralazine hydrochloride]", 1.01],
  ["COc1ccc(C(Cl)=C(c2ccc(OC)cc2)c2ccc(OC)cc2)cc1", 0.978],
  ["NS(=O)(=O)c1cc(C(=O)NN2C[C@@H]3[C@H]4CC[C@H](C4)[C@@H]3C2)ccc1Cl [Tripamide]", 0.999],
  ["C=C1c2cccc(O)c2C(O)=C2C(=O)[C@]3(O)C(O)=C(C(N)=O)C(=O)[C@@H](N(C)C)[C@@H]3[C@@H](O)[C@H]12 [Methacycline hydrochloride]", 0.000703],
  ["NCc1ccc(S(N)(=O)=O)cc1 [Mafenide hydrochloride]", 1.01],
  ["CC(C)(C)CC(C)(C)c1ccc(O)c(Cc2ccc(Cl)cc2Cl)c1", 0.995],
  ["CN(C)[C@@H]1C(=O)C(C(N)=O)=C(O)[C@@]2(O)C(=O)C3=C(O)c4c(O)ccc(Cl)c4[C@@H](O)[C@H]3C[C@@H]12 [Demeclocycline hydrochloride]", 0.00782],
  ["COc1cc(C(=O)NCc2ccc(OCCN(C)C)cc2)cc(OC)c1OC [Trimethobenzamide hydrochloride]", 0.999],
  ["CCCC(=O)Nc1ccc(OCC(O)CNC(C)C)c(C(C)=O)c1 (configuration not stated) [Acebutolol hydrochloride]", 1]
]}

What value of growth AUC normalised to DMSO control has been reported for the following compound? CN(C)CCC[C@@]1(c2ccc(F)cc2)OCc2cc(C#N)ccc21 [Escitalopram oxalate]
0.989

What value of growth AUC normalised to DMSO control has been reported for the following compound? CCOC(=O)[C@H](CCc1ccccc1)N[C@@H](C)C(=O)N(CC(=O)O)C1Cc2ccccc2C1 [Delapril Hydrochloride]
1

What value of growth AUC normalised to DMSO control has been reported for the following compound? CC(NN)c1ccccc1 (configuration not stated)
1

What value of growth AUC normalised to DMSO control has been reported for the following compound? `CC(=O)OC[C@H]1O[C@@H]([S-])[C@H](OC(C)=O)[C@@H](OC(C)=O)[C@@H]1OC(C)=O.CCP(CC)CC.[Au+]`
0.855

What value of growth AUC normalised to DMSO control has been reported for the following compound? NS(=O)(=O)c1cc(C(=O)O)cc(N2CCCC2)c1Oc1ccccc1 [Piretanide]
1

What value of growth AUC normalised to DMSO control has been reported for the following compound? `Cc1cnc(C(=O)O)c[n+]1[O-]`
1.01

What value of growth AUC normalised to DMSO control has been reported for the following compound? Nc1ncn(C2OC(CO)C(O)C2O)c(=O)n1 (configuration not stated)
0.977

What value of growth AUC normalised to DMSO control has been reported for the following compound? `CCOC(=O)[C@H](CCc1ccccc1)N[C@@H](C)C(=O)N1[C@H](C(=O)O)C[C@@H]2CCC[C@@H]21`
1.01

What value of growth AUC normalised to DMSO control has been reported for the following compound? `C/C(=C(\CCOC(=O)c1ccccc1)SS/C(CCOC(=O)c1ccccc1)=C(/C)N(C=O)Cc1cnc(C)nc1N)N(C=O)Cc1cnc(C)nc1N`
1.01

What value of growth AUC normalised to DMSO control has been reported for the following compound? CC1(C)O[C@@H]2C[C@H]3[C@@H]4CCC5=CC(=O)C=C[C@]5(C)[C@H]4[C@@H](O)C[C@]3(C)[C@]2(C(=O)CO)O1 [Desonide]
0.996

What value of growth AUC normalised to DMSO control has been reported for the following compound? C[C@@H]1C[C@H]2[C@@H]3CCC4=CC(=O)C=C[C@]4(C)[C@@]3(Cl)[C@@H](O)C[C@]2(C)[C@@]1(OC(=O)c1ccco1)C(=O)CCl [Mometasone furoate]
1.01

What value of growth AUC normalised to DMSO control has been reported for the following compound? Clc1ccc(C(Cn2ccnc2)OCc2ccsc2Cl)c(Cl)c1 (configuration not stated)
1

What value of growth AUC normalised to DMSO control has been reported for the following compound? CCN(CC)CCOC(=O)C(c1ccccc1)C1CCCCC1 (configuration not stated) [Drofenine hydrochloride]
0.989

What value of growth AUC normalised to DMSO control has been reported for the following compound? `CS(=O)(=O)OCCCCOS(C)(=O)=O`
1.01

What value of growth AUC normalised to DMSO control has been reported for the following compound? `CC(C)c1c(C(=O)Nc2ccccc2)c(-c2ccccc2)c(-c2ccc(F)cc2)n1CC[C@@H](O)C[C@@H](O)CC(=O)O`
0.993

What value of growth AUC normalised to DMSO control has been reported for the following compound? CCOC(=O)[C@H](CCc1ccccc1)N[C@@H](C)C(=O)N1Cc2ccccc2C[C@H]1C(=O)O [Quinapril hydrochloride]
0.982

What value of growth AUC normalised to DMSO control has been reported for the following compound? `C[C@H](CCC(=O)O)[C@H]1CC[C@H]2[C@@H]3CC[C@@H]4C[C@H](O)CC[C@]4(C)[C@H]3CC[C@]12C`
1

What value of growth AUC normalised to DMSO control has been reported for the following compound? Clc1ccc(COC(Cn2ccnc2)c2ccc(Cl)cc2Cl)cc1 (configuration not stated) [Econazole nitrate]
1

What value of growth AUC normalised to DMSO control has been reported for the following compound? CO[C@@]1(NC(=O)C2SC(=C(C(N)=O)C(=O)O)S2)C(=O)N2C(C(=O)O)=C(CSc3nnnn3C)CS[C@@H]21 (some centres not stated)
0.00563

What value of growth AUC normalised to DMSO control has been reported for the following compound? `Nc1cc(C(Cl)=C(Cl)Cl)c(S(N)(=O)=O)cc1S(N)(=O)=O`
1

What value of growth AUC normalised to DMSO control has been reported for the following compound? `CCCN(CCC)S(=O)(=O)c1ccc(C(=O)O)cc1`
1.02

What value of growth AUC normalised to DMSO control has been reported for the following compound? `Cc1cc(=O)oc2cc(O)ccc12`
0.999
